Tested on: FaDu human head and neck cancer xenograft
assay explanation: Xenograft model of anti-NTSR1 ADCs (head and neck cancer)
Assay type: in vivo, male NOD SCID mice
condition info: 5 mpk, IV, BIW × 3; Day 14

molecule	reading unit	TGI % (1-T/C) Day 14
αNTSR1 (AKT2) 4seco-DUBA: antibody-drug conjugate of chimera antibody AKT2 with seco-DUBA payload (conjugate) heavy chain: QVQLQQPGSVLVRPGASVKLSCKASGYAFTSSWIHWAKQRPGQGLEWIGQIRPNSGNTYYNEKFKVKATLTVDTSSSTAYVDLSSLTSEDSAVYYCARYHYGFDYWGQGTLVTVSS light chain: DVLMTQTPLSLPVSLGDQASISCRSSQSIVHSNGNTYLEWYLQKPGQSPKLLIYKVSNRFSGVPDRFSGSGSGTDFTLKISRVEAEDLGVYYCFQGAHLPWTFGGGTKLEIK	%	90.5
